# ASSAYED TARGET: M1 muscarinic receptor (Homo sapiens)
# Construct: expressed in transfected cells; host or cells: CHO (M1-CHO)
# Sequence (P11229 1-460): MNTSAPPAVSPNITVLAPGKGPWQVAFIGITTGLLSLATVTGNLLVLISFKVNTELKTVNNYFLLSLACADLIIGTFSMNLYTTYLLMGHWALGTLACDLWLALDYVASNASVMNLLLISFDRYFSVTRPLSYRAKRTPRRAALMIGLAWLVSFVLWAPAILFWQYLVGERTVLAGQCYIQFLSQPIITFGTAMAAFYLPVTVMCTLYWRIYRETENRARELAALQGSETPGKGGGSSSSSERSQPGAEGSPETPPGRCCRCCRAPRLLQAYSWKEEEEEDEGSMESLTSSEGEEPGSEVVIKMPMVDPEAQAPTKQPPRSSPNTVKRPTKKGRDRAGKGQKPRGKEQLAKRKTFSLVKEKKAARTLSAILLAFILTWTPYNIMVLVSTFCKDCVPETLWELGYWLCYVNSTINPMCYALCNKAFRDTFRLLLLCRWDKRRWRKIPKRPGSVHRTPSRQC
# PROCEDURE DETAILS: Functional mobilization of intracellular calcium (FLIPR) in M1-CHO cells
# Assay type: cell-based
# CONDITION SET: M1 receptor, calcium mobilization; read-out: M1 Efficacy
OBSERVATION TYPE: Emax

Here is how some compounds turned out for Emax.
compound="CC(=O)N1CC2(CCN(C3CCN(C(=O)OC4CCC4)CC3)CC2)c2cc(F)ccc21 [compound 140]" meas_value="> 85%"
compound="CCOC(=O)N1C2CCC1CC(N1CCC3(CC1)C(=O)Nc1ccccc13)C2 (stereo not drawn) [compound 199]" meas_value="65 to 85%"

Now turn to the next compound.
Incoming: # input compound: CCCOC(=O)N1CCC(N2CCC3(CC2)CN(C(=O)N(C)C)c2ccc(F)cc23)CC1 [compound 91] ; wanted: its Emax
Outgoing: 65 to 85%
